The reported numbers originate from ChEMBL document CHEMBL1124365.

- Test system: Klebsiella
- run.description: Minimal inhibitory activity against the Klebsiella (X26)
- Assay type: functional
Listing: MIC of selected compounds
result.type: MIC (µg/mL)

# cpd.smiles, system.under.test, value.observed
records = [
    ("CC(C)(O/N=C(\\C(=O)N[C@@H]1C(=O)N2C(C(=O)[O-])=C(C[n+]3ccccc3)CS[C@H]12)c1csc(N)n1)C(=O)O", "Klebsiella", 0.06),
    ("CO/N=C(\\C(=O)N[C@@H]1C(=O)N2C(C(=O)[O-])=C([n+]3cccc4c3CCCC4)CC[C@H]12)c1csc(N)n1", "Klebsiella", 0.125),
    ("Cc1cc[n+](C2=C(C(=O)[O-])N3C(=O)[C@@H](NC(=O)/C(=N\\OCc4ccccc4)c4csc(N)n4)[C@H]3CC2)cc1C", "Klebsiella", 0.06),
    ("CO/N=C(\\C(=O)N[C@@H]1C(=O)N2C(C(=O)[O-])=C([n+]3ccccc3)CC[C@H]12)c1csc(N)n1", "Klebsiella", 0.03),
    ("CO/N=C(\\C(=O)N[C@@H]1C(=O)N2C(C(=O)[O-])=C([n+]3ccc(C)c(C)c3)CC[C@H]12)c1csc(N)n1", "Klebsiella", 0.06),
    ("CO/N=C(\\C(=O)N[C@@H]1C(=O)N2C(C(=O)[O-])=C([n+]3cccc4c3CCC4)CC[C@H]12)c1csc(N)n1", "Klebsiella", 0.03),
    ("CO/N=C(\\C(=O)N[C@@H]1C(=O)N2C(C(=O)[O-])=C([n+]3cc(C)ccc3C)CC[C@H]12)c1csc(N)n1", "Klebsiella", 0.125),
    ("CO/N=C(\\C(=O)N[C@@H]1C(=O)N2C(C(=O)[O-])=C([n+]3ccc4c(c3)ncn4C)CC[C@H]12)c1csc(N)n1", "Klebsiella", 0.06),
]

----------
- Test system: Escherichia coli
- run.description: Minimal inhibitory activity against the E. coli(TEM beta lactamase containing)
- Format: functional
Listing: MIC of selected compounds
result.type: MIC (µg/mL)

# cpd.smiles, system.under.test, unit.descriptor, value.observed
measured = [
    ("CO/N=C(\\C(=O)N[C@@H]1C(=O)N2C(C(=O)[O-])=C([n+]3cc(C)ccc3C)CC[C@H]12)c1csc(N)n1", "Escherichia coli", "µg/mL", 0.125),
    ("CO/N=C(\\C(=O)N[C@@H]1C(=O)N2C(C(=O)[O-])=C([n+]3ccccc3)CC[C@H]12)c1csc(N)n1", "Escherichia coli", "µg/mL", 0.06),
    ("CO/N=C(\\C(=O)N[C@@H]1C(=O)N2C(C(=O)[O-])=C([n+]3ccc(C)c(C)c3)CC[C@H]12)c1csc(N)n1", "Escherichia coli", "µg/mL", 0.06),
    ("CC(C)(O/N=C(\\C(=O)N[C@@H]1C(=O)N2C(C(=O)[O-])=C(C[n+]3ccccc3)CS[C@H]12)c1csc(N)n1)C(=O)O", "Escherichia coli", "µg/mL", 0.125),
    ("Cc1cc[n+](C2=C(C(=O)[O-])N3C(=O)[C@@H](NC(=O)/C(=N\\OCc4ccccc4)c4csc(N)n4)[C@H]3CC2)cc1C", "Escherichia coli", "µg/mL", 1),
    ("CO/N=C(\\C(=O)N[C@@H]1C(=O)N2C(C(=O)[O-])=C([n+]3cccc4c3CCC4)CC[C@H]12)c1csc(N)n1", "Escherichia coli", "µg/mL", 0.5),
    ("CO/N=C(\\C(=O)N[C@@H]1C(=O)N2C(C(=O)[O-])=C([n+]3cccc4c3CCCC4)CC[C@H]12)c1csc(N)n1", "Escherichia coli", "µg/mL", 1),
    ("CO/N=C(\\C(=O)N[C@@H]1C(=O)N2C(C(=O)[O-])=C([n+]3ccc4c(c3)ncn4C)CC[C@H]12)c1csc(N)n1", "Escherichia coli", "µg/mL", 0.5),
]
